All values here come from patent US20220169628A1.

# Tested on: RS4;11 cells
# Measurement Notes: Cell viability assay, MTS, 48 h, RS4;11
# Format: cell-based
# Condition Context: Homo sapiens, RS4-11, 48 h, 48 hours, read-out: IC50 (48 hours) RS4;11
pIC50: −log10 of the molar value.
Catalogue of compounds with associated pIC50

[ask] Would you kindly share the measured pIC50 for Cc1ncsc1-c1ccc([C@H](C)NC(=O)[C@@H]2C[C@@H](O)CN2C(=O)[C@@H](NC(=O)CCCCCC(=O)N[C@H]2CCCN(CC3(C)CCC(c4ccc(Cl)cc4)=C(CN4CCN(c5ccc(C(=O)NS(=O)(=O)c6ccc(N[C@H](CCN7CCOCC7)CSc7ccccc7)c(S(=O)(=O)C(F)(F)F)c6)cc5)CC4)C3)C2)C(C)(C)C)cc1 (stereo partly drawn) ?
[reply] 6.82 to 7.30

[ask] Repeat for the following compound: Cc1ncsc1-c1ccc([C@H](C)NC(=O)[C@@H]2C[C@@H](O)CN2C(=O)[C@@H](NC(=O)CCCC(=O)N2CCN(C(=O)C3(C)CCC(c4ccc(Cl)cc4)=C(CN4CCN(c5ccc(C(=O)NS(=O)(=O)c6ccc(N[C@H](CCN7CCOCC7)CSc7ccccc7)c(S(=O)(=O)C(F)(F)F)c6)cc5)CC4)C3)CC2)C(C)(C)C)cc1 (stereo partly drawn)
[reply] < 6.30

[ask] Repeat for the following compound: Cc1ncsc1-c1ccc([C@H](C)NC(=O)[C@@H]2C[C@@H](O)CN2C(=O)[C@@H](NC(=O)CCCCCCCCC(=O)N2CCC(c3ccc(Cl)cc3)=C(CN3CCN(c4ccc(C(=O)NS(=O)(=O)c5ccc(N[C@H](CCN6CCOCC6)CSc6ccccc6)c(S(=O)(=O)C(F)(F)F)c5)cc4)CC3)C2)C(C)(C)C)cc1
[reply] 6.30 to 6.82

[ask] Repeat for the following compound: Cc1ncsc1-c1ccc([C@H](C)NC(=O)[C@@H]2C[C@@H](O)CN2C(=O)[C@@H](NC(=O)CCCCCCC(=O)N[C@H]2CCCN(CC3(C)CCC(c4ccc(Cl)cc4)=C(CN4CCN(c5ccc(C(=O)NS(=O)(=O)c6ccc(N[C@H](CCN7CCOCC7)CSc7ccccc7)c(S(=O)(=O)C(F)(F)F)c6)cc5)CC4)C3)C2)C(C)(C)C)cc1 (stereo partly drawn)
[reply] 6.82 to 7.30

[ask] Repeat for the following compound: Cc1ncsc1-c1ccc([C@H](C)NC(=O)[C@@H]2C[C@@H](O)CN2C(=O)[C@@H](NC(=O)COCCOCCOCCOCCOCC(=O)NCC2(C)CCC(c3ccc(Cl)cc3)=C(CN3CCN(c4ccc(C(=O)NS(=O)(=O)c5ccc(N[C@H](CCN6CCOCC6)CSc6ccccc6)c(S(=O)(=O)C(F)(F)F)c5)cc4)CC3)C2)C(C)(C)C)cc1 (stereo partly drawn)
[reply] < 6.30

[ask] Repeat for the following compound: Cc1ncsc1-c1ccc([C@H](C)NC(=O)[C@@H]2C[C@@H](O)CN2C(=O)[C@@H](NC(=O)CCC(=O)N2CCC(c3ccc(Cl)cc3)=C(CN3CCN(c4ccc(C(=O)NS(=O)(=O)c5ccc(N[C@H](CCN6CCOCC6)CSc6ccccc6)c(S(=O)(=O)C(F)(F)F)c5)cc4)CC3)C2)C(C)(C)C)cc1
[reply] < 6.30

###

# Test system: RS4;11 cells
# Measurement Notes: Cell viability assay, MTS, 48 h, RS4;11
# Assay type: cell-based
# Condition Context: Homo sapiens, RS4-11, 48 h, 48 hours, read-out: IC50 (48 hours) RS4;11
Endpoint: IC50

A selection of reference data follows.
Compound	Endpoint	Recorded Result
Cc1ncsc1-c1ccc([C@H](C)NC(=O)[C@@H]2C[C@@H](O)CN2C(=O)[C@@H](NC(=O)CCCCCCCCCC(=O)N2CCC(c3ccc(Cl)cc3)=C(CN3CCN(c4ccc(C(=O)NS(=O)(=O)c5ccc(N[C@H](CCN6CCOCC6)CSc6ccccc6)c(S(=O)(=O)C(F)(F)F)c5)cc4)CC3)C2)C(C)(C)C)cc1	IC50	150 to 500 nM
Cc1ncsc1-c1ccc([C@H](C)NC(=O)[C@@H]2C[C@@H](O)CN2C(=O)[C@@H](NC(=O)CCCCCCCC(=O)N[C@H]2CCCN(CC3(C)CCC(c4ccc(Cl)cc4)=C(CN4CCN(c5ccc(C(=O)NS(=O)(=O)c6ccc(N[C@H](CCN7CCOCC7)CSc7ccccc7)c(S(=O)(=O)C(F)(F)F)c6)cc5)CC4)C3)C2)C(C)(C)C)cc1 (stereo partly shown)	IC50	< 50 nM
Cc1ncsc1-c1ccc([C@H](C)NC(=O)[C@@H]2C[C@@H](O)CN2C(=O)[C@@H](NC(=O)CCCCCCCCCCC(=O)N2CCC(c3ccc(Cl)cc3)=C(CN3CCN(c4ccc(C(=O)NS(=O)(=O)c5ccc(N[C@H](CCN6CCOCC6)CSc6ccccc6)c(S(=O)(=O)C(F)(F)F)c5)cc4)CC3)C2)C(C)(C)C)cc1	IC50	50 to 150 nM
Cc1ncsc1-c1ccc([C@H](C)NC(=O)[C@@H]2C[C@@H](O)CN2C(=O)[C@@H](NC(=O)COCCOCCOCCOC(=O)N2CCC(c3ccc(Cl)cc3)=C(CN3CCN(c4ccc(C(=O)NS(=O)(=O)c5ccc(N[C@H](CCN6CCOCC6)CSc6ccccc6)c(S(=O)(=O)C(F)(F)F)c5)cc4)CC3)C2)C(C)(C)C)cc1	IC50	> 500 nM
CC1(CNC(=O)CCCCCCCNc2cccc3c2C(=O)N(C2CCC(=O)NC2=O)C3=O)CCC(c2ccc(Cl)cc2)=C(CN2CCN(c3ccc(C(=O)NS(=O)(=O)c4ccc(N[C@H](CCN5CCOCC5)CSc5ccccc5)c(S(=O)(=O)C(F)(F)F)c4)cc3)CC2)C1 (stereo partly shown)	IC50	< 50 nM
Cc1ncsc1-c1ccc([C@H](C)NC(=O)[C@@H]2C[C@@H](O)CN2C(=O)[C@@H](NC(=O)CCCCCC(=O)N2CCN(C(=O)C3(C)CCC(c4ccc(Cl)cc4)=C(CN4CCN(c5ccc(C(=O)NS(=O)(=O)c6ccc(N[C@H](CCN7CCOCC7)CSc7ccccc7)c(S(=O)(=O)C(F)(F)F)c6)cc5)CC4)C3)CC2)C(C)(C)C)cc1 (stereo partly shown)	IC50	50 to 150 nM
Cc1ncsc1-c1ccc([C@H](C)NC(=O)[C@@H]2C[C@@H](O)CN2C(=O)[C@@H](NC(=O)CCCCCC(=O)N2CCC(c3ccc(Cl)cc3)=C(CN3CCN(c4ccc(C(=O)NS(=O)(=O)c5ccc(N[C@H](CCN6CCOCC6)CSc6ccccc6)c(S(=O)(=O)C(F)(F)F)c5)cc4)CC3)C2)C(C)(C)C)cc1	IC50	> 500 nM
CC1(CNC(=O)COCCOCCOCCNc2cccc3c2C(=O)N(C2CCC(=O)NC2=O)C3=O)CCC(c2ccc(Cl)cc2)=C(CN2CCN(c3ccc(C(=O)NS(=O)(=O)c4ccc(N[C@H](CCN5CCOCC5)CSc5ccccc5)c(S(=O)(=O)C(F)(F)F)c4)cc3)CC2)C1 (stereo partly shown)	IC50	< 50 nM

[ask] Would you kindly share the measured IC50 for CC1(CNC(=O)COCCNc2cccc3c2C(=O)N(C2CCC(=O)NC2=O)C3=O)CCC(c2ccc(Cl)cc2)=C(CN2CCN(c3ccc(C(=O)NS(=O)(=O)c4ccc(N[C@H](CCN5CCOCC5)CSc5ccccc5)c(S(=O)(=O)C(F)(F)F)c4)cc3)CC2)C1 (stereo partly shown) ?
[reply] 50 to 150 nM

[ask] Repeat for the following compound: Cc1ncsc1-c1ccc([C@H](C)NC(=O)[C@@H]2C[C@@H](O)CN2C(=O)[C@@H](NC(=O)CCCCC#CC#CC2(C)CCC(c3ccc(Cl)cc3)=C(CN3CCN(c4ccc(C(=O)NS(=O)(=O)c5ccc(N[C@H](CCN6CCOCC6)CSc6ccccc6)c(S(=O)(=O)C(F)(F)F)c5)cc4)CC3)C2)C(C)(C)C)cc1 (stereo partly shown)
[reply] > 500 nM

[ask] Repeat for the following compound: Cc1ncsc1-c1ccc([C@H](C)NC(=O)[C@@H]2C[C@@H](O)CN2C(=O)[C@@H](NC(=O)CC2CCC(CC(=O)N3CCN(CC4(C)CCC(c5ccc(Cl)cc5)=C(CN5CCN(c6ccc(C(=O)NS(=O)(=O)c7ccc(N[C@H](CCN8CCOCC8)CSc8ccccc8)c(S(=O)(=O)C(F)(F)F)c7)cc6)CC5)C4)CC3)CC2)C(C)(C)C)cc1 (stereo partly shown)
[reply] < 50 nM

[ask] Repeat for the following compound: Cc1ncsc1-c1ccc([C@H](C)NC(=O)[C@@H]2C[C@@H](O)CN2C(=O)[C@@H](NC(=O)CCCCCC(=O)N2CCN(CC3(C)CCC(c4ccc(Cl)cc4)=C(CN4CCN(c5ccc(C(=O)NS(=O)(=O)c6ccc(N[C@H](CCN7CCOCC7)CSc7ccccc7)c(S(=O)(=O)C(F)(F)F)c6)cc5)CC4)C3)CC2)C(C)(C)C)cc1 (stereo partly shown)
[reply] < 50 nM

[ask] Repeat for the following compound: Cc1ncsc1-c1ccc([C@H](C)NC(=O)[C@@H]2C[C@@H](O)CN2C(=O)[C@@H](NC(=O)CCCC(=O)N2CCN(CCN(C)CC3(C)CCC(c4ccc(Cl)cc4)=C(CN4CCN(c5ccc(C(=O)NS(=O)(=O)c6ccc(N[C@H](CCN7CCOCC7)CSc7ccccc7)c(S(=O)(=O)C(F)(F)F)c6)cc5)CC4)C3)CC2)C(C)(C)C)cc1 (stereo partly shown)
[reply] 150 to 500 nM
